METHOD_SUMMARY: Compound stability in solution
CONDITION_CONTEXT: stability in cell growth media or buffer solutions
QUANTITY_NAME: Half-life (days)
Numbers only; they are read as days.

{"columns": ["SMILES_STRING", "Half-life, days"],
 "data": [
  ["O=C(O)C(=O)CC(=O)c1cccc(Cl)c1", 7],
  ["Cc1ccccc1C(=O)CC(=O)C(=O)O", 30],
  ["Cc1ccc(C(=O)CC(=O)C(=O)O)cc1", 8]
]}

In: Tell me measured Half-life for O=C(O)C(=O)CC(=O)c1ccccc1Cl please.
Out: 35

In: Tell me measured Half-life for O=C(O)C(=O)CC(=O)c1ccccc1F please.
Out: 12

In: Tell me measured Half-life for O=C(O)C(=O)CC(=O)c1ccc(Br)cc1 please.
Out: 7

###

METHOD_SUMMARY: UV absorbance peak
CONDITION_CONTEXT: UV absorbance peak in solution
# λmax per record follows
Numbers only; they are read as nM.

Below, 5 molecules whose answers are already recorded.
{"columns": ["SMILES_STRING", "TEST_VALUE"],
 "data": [
  ["O=C(O)C(=O)CC(=O)c1ccccc1F", 333],
  ["O=C(O)/C(O)=C/C(=O)c1ccccc1", 340],
  ["Cc1ccccc1C(=O)CC(=O)C(=O)O", 326],
  ["Cc1ccc(C(=O)CC(=O)C(=O)O)cc1", 340],
  ["O=C(O)C(=O)CC(=O)c1ccccc1Cl", 324]
]}

In: Tell me measured λmax for O=C(O)C(=O)CC(=O)c1cccc(Cl)c1 please.
Out: 341

In: Tell me measured λmax for O=C(O)C(=O)CC(=O)c1ccc(Br)cc1 please.
Out: 345

###

METHOD_SUMMARY: physchem
QUANTITY_NAME: Half-life

In: Tell me measured Half-life for O=C(O)/C(O)=C/C(=O)c1ccccc1 please.
Out: ~72 h
